# Target Desc: FGFR4 (Homo sapiens)
# Construct: purchased
# Sequence (P22455 22-802): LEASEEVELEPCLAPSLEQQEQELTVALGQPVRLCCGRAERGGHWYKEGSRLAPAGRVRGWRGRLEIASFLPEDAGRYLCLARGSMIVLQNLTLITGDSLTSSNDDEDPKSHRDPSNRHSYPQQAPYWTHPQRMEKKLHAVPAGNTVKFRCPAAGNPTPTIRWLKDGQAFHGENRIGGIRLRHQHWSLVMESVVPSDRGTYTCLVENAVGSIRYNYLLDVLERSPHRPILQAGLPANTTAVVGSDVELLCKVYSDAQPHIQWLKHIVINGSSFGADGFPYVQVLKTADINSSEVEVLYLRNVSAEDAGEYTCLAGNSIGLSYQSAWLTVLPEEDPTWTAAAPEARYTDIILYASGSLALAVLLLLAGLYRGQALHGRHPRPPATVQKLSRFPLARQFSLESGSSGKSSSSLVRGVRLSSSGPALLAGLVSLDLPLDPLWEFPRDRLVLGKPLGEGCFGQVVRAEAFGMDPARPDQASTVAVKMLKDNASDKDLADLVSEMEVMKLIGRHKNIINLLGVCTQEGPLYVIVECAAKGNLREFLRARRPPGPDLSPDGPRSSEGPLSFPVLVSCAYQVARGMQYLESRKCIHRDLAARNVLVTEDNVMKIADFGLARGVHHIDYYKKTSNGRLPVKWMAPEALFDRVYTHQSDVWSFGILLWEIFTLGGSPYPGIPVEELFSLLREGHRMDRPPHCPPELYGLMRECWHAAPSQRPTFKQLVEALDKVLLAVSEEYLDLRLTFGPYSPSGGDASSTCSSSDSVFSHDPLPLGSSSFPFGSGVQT
# Test Details: Determination of FGFR4 inhibitory activity by fluorescence resonance energy transfer (FRET) method
# Format: biochemical
# Reported Conditions: FGFR4 from purchased kit, read-out: In vitro FGFR4 kinase inhibitory activity IC50
Metric Name: IC50

Solved cases (4 shown):
Compound | IC50
COc1cc2nccc(Oc3ccc(NC(=O)NC4CC4)c(Cl)c3)c2cc1C(N)=O [Lenvatinib, reference compound] | 43 nM
C=CC(=O)N1CC=C(c2cc3c(Oc4ccc(NC(=O)NC5CC5)c(Cl)c4)ccnc3cc2OCCN2CCOCC2)CC1 [Compound I-14] | < 5 nM
C=CC(=O)N1CCC=C(c2cc3c(Oc4ccc(NC(=O)NC5CC5)c(Cl)c4)ccnc3cc2OC)C1 [Compound I-21] | < 5 nM
C=CC(=O)N1CC=C(c2cc3c(Oc4ccc(NC(=O)NC5CC5)c(F)c4)ccnc3cc2OC)CC1 [Compound I-19] | < 2 nM

input: Give the value of IC50 reported for the following: C=CC(=O)N1CC=C(c2cc3c(Oc4ccc(NC(=O)NC5CC5)cc4F)ccnc3cc2OC)CC1 [Compound I-18]
output: < 5 nM
